Tested on: biotinyl-Trp-oxazolone
Assay: self-aminoacylation, catalytic enhancement (BWO) (fold over background); higher = more active; k-Seq, kA / k0A0; sequences stand for … in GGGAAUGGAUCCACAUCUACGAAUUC…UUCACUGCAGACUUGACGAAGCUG
Fewer inactive variants are shown than the library holds.
Please provide measured self-aminoacylation for the entries that follow.
Answers are plain numbers.

Field: example entries. Status: answers known.
CUACCUCAAACAUUCGGUCUG [Fam1A.1 aminoacylation ribozyme variant] = 3.08
CUACUUCAAAAAAUCGGCCUG [Fam1A.1 aminoacylation ribozyme variant] = 13.1
AAGUUUGCUAAUAGUCGCUCG [Fam3.1 aminoacylation ribozyme variant] = 0.853

Here are 5 sequences. What values of self-aminoacylation were reported for them?
1. AAGUUUGCUAAUAGUUGCAAU [Fam3.1 aminoacylation ribozyme variant]
2. AUUCCCCUAGGUCAUCGUGUG [Fam2.2 aminoacylation ribozyme variant]
3. AUUACCCUGGUCAUCGGUUGA [Fam2.1 aminoacylation ribozyme variant]
4. AUUACCCUGGGCAUCGAUUGA [Fam2.1 aminoacylation ribozyme variant]
5. AUUACCCUGGUCAUCGGGUGA [Fam2.1 aminoacylation ribozyme variant]

*A*
1.29
4.05
3.08
0.622
140

Consider the following items and state reported self-aminoacylation for each.
1. AUUACCCUGGUAAUCGAGUGA [Fam2.1 aminoacylation ribozyme variant]
2. AUUCACCUAGGACAUCCGGUG [Fam2.2 aminoacylation ribozyme variant]
3. AAGUUCGCUAAUAGUCGCUAG [Fam3.1 aminoacylation ribozyme variant]
4. AUUACCCUGGUCAUCGCGUGA [Fam2.1 aminoacylation ribozyme variant]
5. CUACUUCAGACGAUCGGUCUG [Fam1A.1 aminoacylation ribozyme variant]
6. CUAGUUCAAAAAAUCGGUCUG [Fam1A.1 aminoacylation ribozyme variant]
7. CCACCCUUCAAGCAAGCGGUC [Fam1B.1 aminoacylation ribozyme variant]
8. ACACACUUCAAGCAAUUGGUC [Fam1B.1 aminoacylation ribozyme variant]

*A*
[9.96, 4.47, 1.45, 20.1, 0.788, 2.08, 0.963, 1.29]

Dear reader, for each entry below, please note its self-aminoacylation.
1. AUUCACCUAGGUCUUCGGCUG [Fam2.2 aminoacylation ribozyme variant]
2. AAGUUUGCUAAGAAUCGCAAG [Fam3.1 aminoacylation ribozyme variant]

*A*
1.46
0.588

----------
Test system: biotinyl-Ile-oxazolone
Experiment: self-aminoacylation, catalytic enhancement (BIO) (fold over background); higher = more active; k-Seq, kA / k0A0; sequences stand for … in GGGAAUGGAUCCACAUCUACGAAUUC…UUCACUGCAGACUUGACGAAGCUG
Fewer inactive variants are shown than the library holds.
endpoint_name: self-aminoacylation
One number for each entry.

# annotated cases, reported self-aminoacylation shown
AUUACCCUGGUUGUCGAGUGA [Fam2.1 aminoacylation ribozyme variant] = 1.38
AUUCCCCUAGGUCAUCGGCUG [Fam2.2 aminoacylation ribozyme variant] = 8.03
AUUAACCUAGGUCAUCGGGGG [Fam2.2 aminoacylation ribozyme variant] = 2.68
CUACUUCAAACAAGCGGGCUG [Fam1A.1 aminoacylation ribozyme variant] = 1.79
CUACUUCAAACGAUCGGUCUA [Fam1A.1 aminoacylation ribozyme variant] = 0.757
ACUACCCUGGUCAUCGAGCGA [Fam2.1 aminoacylation ribozyme variant] = 2.04
CUACUUCAAACAGUCGUUCUG [Fam1A.1 aminoacylation ribozyme variant] = 0.579
AUUGCCCUUGUCAUCGAGUGA [Fam2.1 aminoacylation ribozyme variant] = 3.38
UUUACCCUGGUCACCGAGUGA [Fam2.1 aminoacylation ribozyme variant] = 3.3
CUACUUCAAACCAUCGGACUG [Fam1A.1 aminoacylation ribozyme variant] = 0.8

Please state, for each entry, its recorded self-aminoacylation.
1. AUUCACCUAAGUCAUCGGGAG [Fam2.2 aminoacylation ribozyme variant]
2. AAGUUUGCUAAUACUCGCAAA [Fam3.1 aminoacylation ribozyme variant]

*A*
[1.07, 1.2]

Batch: self-aminoacylation for all items listed.
1. AAGUUUGCUAAUAGUCCCAUG [Fam3.1 aminoacylation ribozyme variant]
2. AUUACACUGGUCAUCGAGUGC [Fam2.1 aminoacylation ribozyme variant]
3. AUUCACCUUGGUCAUCGGGAG [Fam2.2 aminoacylation ribozyme variant]
4. GCACACUUCAAGCCAUCGGUC [Fam1B.1 aminoacylation ribozyme variant]

*A*
[0.978, 1.06, 1.07, 2.81]

I have 2 sequences here; please give me self-aminoacylation for each one.
1. AAGCUUGCUAAUAGUCACAAG [Fam3.1 aminoacylation ribozyme variant]
2. CCACUCUUCAAGCAAUCGGUG [Fam1B.1 aminoacylation ribozyme variant]

*A*
1. 1.64
2. 3.43
